Tested on: HIV
Assay: MT4 assay: antiviral HIV activity in MT-4 cells
Type: cell-based
Conditions: Human immunodeficiency virus 1, MT4, 96 h, read-out: HIV MT4 Assay IC50 (μM), HTLV-1 transformed cell line MT-4; read-out 96 hours later with cell titer glo; 10 point dose response
Counter-ions that a name gives are not always drawn.
IC50 values for the molecules below.
Write it as a number; the unit µM goes unstated.

Sample records with IC50:
- MOLECULE: "Cc1nc2c(ccn2Cc2ccc(F)c(F)c2)c(-c2ccc3ncsc3c2)c1[C@H](OC(C)(C)C)C(=O)O [Example 117, Trifluoroacetic acid salt]"
  UNIT INFO: "µM"
  IC50: 0.036
- MOLECULE: "Cc1ccc(-c2c(C(OC(C)(C)C)C(=O)O)c(C)nc3c2ccn3CCOCc2ccccc2)cc1 (stereo not shown)"
  UNIT INFO: "µM"
  IC50: 4.87
- MOLECULE: "Cc1nc2c(ccn2Cc2cccc(F)c2F)c(-c2ccc3c(c2C)CCCO3)c1[C@H](OC(C)(C)C)C(=O)O (atropisomer, axis not shown; (M))"
  UNIT INFO: "µM"
  IC50: 0.008
- MOLECULE: "Cc1ccc(-c2c(C(OC(C)(C)C)C(=O)O)c(C)nc3c2ccn3CC(C)(C)C)cc1 (stereo not shown)"
  UNIT INFO: "µM"
  IC50: 0.9
- MOLECULE: "Cc1ccc(-c2c(C(OC(C)(C)C)C(=O)O)c(C)nc3c2ccn3Cc2cc(F)c(F)c(F)c2)cc1 (stereo not shown)"
  UNIT INFO: "µM"
  IC50: 0.16

Give HIV IC50 for Cc1nc2c(ccn2Cc2ccc(F)c(F)c2)c(-c2ccc3c(c2C)NCCO3)c1[C@H](OC(C)(C)C)C(=O)O (atropisomer, axis not shown; (M)) [Example 97, trifluoroacetic acid salt] 0.012

Form field: IC50 recorded for Cc1nc2c(ccn2Cc2ccc(C(F)(F)F)o2)c(-c2ccc3c(c2)CCCO3)c1C(OC(C)(C)C)C(=O)O (stereo not shown) with HIV (enter value) 0.1

Record Cc1nc2c(c(-c3ccc4c(c3C)CCCO4)c1[C@H](OC(C)(C)C)C(=O)O)CCN2 (atropisomer, axis not shown; (M)) : what is its IC50 with HIV? 0.44
